Source listed as the NIST ThermoML archive (doi:10.1016/j.fluid.2013.11.028).

test: wn = mass fraction of the nth substance listed; conditions: 308.15 K; 101 kPa; Liquid; Taylor dispersion method; w1 = 0.3
Recorded endpoint: binary diffusion coefficient (m2/s)

Molecule	binary diffusion coefficient [m2/s]
CNCCCN [N-methyl-1,3-diaminopropane] + O	7.26e-10
CN(C)CCN(C)C [N,N,N',N'-tetramethyl-1,2-diaminoethane] + O	4.4e-10

[a] CN(C)CCCN(C)C [N,N,N',N'-tetramethyl-1,3-propanediamine] + O
[b] NCCNCCN [di(2-aminoethyl)amine] + O
Query: Compare reported binary diffusion coefficient values for a and b . Which is lower? Selection: enter the item's label.
Reply: a
(a: 3.57e-10 m2/s, b: 7.14e-10 m2/s)
